Biological target: Cytochrome P450 3A4 (Homo sapiens) (UniProt P08684)
Sequence (P08684 whole entry, looked up): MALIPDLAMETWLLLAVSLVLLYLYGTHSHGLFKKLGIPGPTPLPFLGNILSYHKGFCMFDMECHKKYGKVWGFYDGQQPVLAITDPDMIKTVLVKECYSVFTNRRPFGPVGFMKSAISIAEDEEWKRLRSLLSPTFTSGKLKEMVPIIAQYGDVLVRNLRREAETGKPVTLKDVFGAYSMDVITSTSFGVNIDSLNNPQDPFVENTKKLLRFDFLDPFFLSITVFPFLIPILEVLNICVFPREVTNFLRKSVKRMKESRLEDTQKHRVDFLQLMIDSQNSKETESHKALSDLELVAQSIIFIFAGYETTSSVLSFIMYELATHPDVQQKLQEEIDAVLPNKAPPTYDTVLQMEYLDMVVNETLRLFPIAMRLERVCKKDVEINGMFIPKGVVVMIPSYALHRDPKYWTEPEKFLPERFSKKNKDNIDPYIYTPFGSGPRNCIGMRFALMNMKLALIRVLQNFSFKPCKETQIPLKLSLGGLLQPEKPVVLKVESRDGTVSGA
Assay: qHTS Assay for Activators of Cytochrome P450 3A4 (AID 885); note: nearly all actives have a fitted effect of over 65% in size
Conditions: recombinant CYP3A4, Luciferin-PPXE luminescence, 60 min; series mostly up to 57.1 µM
Activity calls are given as the source filed them. Calls come from the whole dose curve; as a rule, active = well fitted activation curve with a large enough effect; inconclusive = small, poorly fitted or top-dose-only effect; inactive = no such curve, though single readings can be large or run the other way.
measurement_label: outcome

COc1cccc(Cn2c(=O)c(-c3cccs3)nc3cnc(OC)nc32)c1	inactive
COc1ccc2[nH]cc(CCNc3nc(-c4ccc(C(=O)N(C)C)cc4)nc4ccccc34)c2c1	inactive
COc1ccc(-c2nc3cnc(OC)nc3n(C)c2=O)cc1	inactive
CC1(C)[C@@H](O)CC[C@]2(C)C3C(=O)C=C4C5C[C@@](C)(C(=O)O)CC[C@]5(C)CC[C@@]4(C)[C@]3(C)CC[C@@H]12 (stereo partly specified)	inactive
Cc1cnc(CNc2nc(-c3ccccc3C(F)(F)F)nc3ccccc23)cn1	inactive

For `CS(=O)(=O)Nc1cccc(-c2cncnc2-n2ccnc2)c1` the compound record lists outcome as inactive

compound `CCOC(=O)c1c(C)cc(OC)cc1O` , outcome observed: inactive

So, `Cc1noc(C)c1-c1nccc(NCc2cccs2)n1` ? Its outcome was inactive

The recorded outcome for `C=CCc1ccc(OC(=O)c2ccccc2)c(OC)c1` is inactive

// recorded outcome for `COc1cccc(-c2nc(NCCNC(C)=O)c3ccccc3n2)c1` : inactive

According to the records, this compound `COc1ccc(C(=O)N2CCC3(CCCN(Cc4cc(C(F)(F)F)cc(C(F)(F)F)c4)C3)CC2)cc1` displays outcome of inactive
